From: ChEMBL document CHEMBL1961873

Molecular target: Vascular endothelial growth factor receptor 3 (Homo sapiens);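 further: mean FLT4 inhibition, averaged across replicates, from the GSK PKIS kinase inhibitor screen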
Settings: at 1 µM
measurement-kind: inhibition (%)
Return type: number; implicit unit %.

See these solved cases before continuing.
{"sample-smiles": "CCc1nn2ncccc2c1-c1ccnc(NC2CC2)n1", "value-unit": "%", "inhibition": 4.12}
{"sample-smiles": "Cc1cccc2c1NC(=O)/C2=N\\Nc1ccc(S(N)(=O)=O)cc1", "value-unit": "%", "inhibition": -0.85}
{"sample-smiles": "Nc1nc(-c2ccc(F)cc2)c(-c2ccc3ncccc3n2)s1", "value-unit": "%", "inhibition": 11.6}
{"sample-smiles": "CCn1cc(-c2ccnc3[nH]ccc23)c(-c2cccc(NC(=O)Nc3ccc(OCc4ccccc4)cc3)c2)n1", "value-unit": "%", "inhibition": -0.67}
{"sample-smiles": "Cc1cccc(Nc2ncc(-c3ccccc3)o2)c1", "value-unit": "%", "inhibition": 9.11}

Query string: Entry under review: `Cc1ccc2c(-c3ccnc(Nc4ccccc4)n3)c(-c3ccc(F)cc3)nn2n1` . Reported inhibition?
Result string: 28.3

Query string: Please report the recorded inhibition for `COc1cc(N2CCN(C(C)C)CC2)ccc1Nc1nc(Nc2ccc(F)cc2C(N)=O)c2cc[nH]c2n1` .
Result string: 2.68

Query string: Can you share its inhibition? I mean this compound: `CCCN(CCS(C)(=O)=O)Cc1ccc(-c2ccc3ncnc(Nc4ccc(OCc5cccc(F)c5)c(Cl)c4)c3c2)o1`
Result string: -0.27

Query string: Returns the measured inhibition for the input compound. Input: `CC(=O)Nc1cccc(C#Cc2cncnc2Nc2ccc(OCc3cccc(F)c3)c(Cl)c2)c1`
Result string: 3.83

Query string: Name the recorded inhibition for `COc1ccc2[nH]c3c4[nH]c5ccc(OC)cc5c4c4c(c3c2c1)C(=O)NC4=O` .
Result string: 63.5

Query string: // returns reported inhibition for input `O=C(Nc1n[nH]c2cc(-c3ccc(F)cc3)ccc12)C1CC1`
Result string: 1.78

* * *

Recorded inhibition by entry
Molecular target: Dual specificity protein kinase CLK2 (Homo sapiens) (UniProt P49760);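 further: reported values are mean percent inhibition of CLK2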
Sequence (P49760 whole entry, looked up): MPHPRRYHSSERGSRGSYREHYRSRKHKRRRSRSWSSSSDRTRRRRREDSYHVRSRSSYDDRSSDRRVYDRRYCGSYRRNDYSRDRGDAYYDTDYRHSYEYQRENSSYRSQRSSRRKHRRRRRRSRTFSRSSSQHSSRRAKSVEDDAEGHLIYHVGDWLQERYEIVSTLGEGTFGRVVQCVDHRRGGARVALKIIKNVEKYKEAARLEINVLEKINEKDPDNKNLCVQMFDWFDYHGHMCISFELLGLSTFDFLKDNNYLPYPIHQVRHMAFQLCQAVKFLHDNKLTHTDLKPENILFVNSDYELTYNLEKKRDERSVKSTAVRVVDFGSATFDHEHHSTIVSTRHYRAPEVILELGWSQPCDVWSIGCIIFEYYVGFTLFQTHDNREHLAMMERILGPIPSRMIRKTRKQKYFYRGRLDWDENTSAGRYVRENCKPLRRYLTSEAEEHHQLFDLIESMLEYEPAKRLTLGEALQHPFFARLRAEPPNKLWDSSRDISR
Details: at 1 µM
Expressed in %, but write only the number.

Solved cases (8 shown):
{"sample-smiles": "COc1cccc(-n2ncc3c(N/N=C/c4ccc(F)cc4)ncnc32)c1", "inhibition / %": 4.42}
{"sample-smiles": "CCNC(=O)O[C@H]1CN[C@H](C#Cc2cc3ncnc(Nc4ccc(OCc5cccc(F)c5)c(Cl)c4)c3s2)C1", "inhibition / %": 2.34}
{"sample-smiles": "CC(C)(CO)CNC(=O)c1ccc2c(c1)/C(=N/Nc1ccc(S(N)(=O)=O)cc1)C(=O)N2", "inhibition / %": 61.9}
{"sample-smiles": "CCOc1ccc2c(-c3ccnc(Nc4cccc(C(F)(F)F)c4)n3)cnn2n1", "inhibition / %": 94.3}
{"sample-smiles": "Fc1ccc(-c2cc(-c3c[nH]nc3-c3ccccn3)ccn2)cc1", "inhibition / %": 2.71}
{"sample-smiles": "COC(=O)Nc1nc2ccc(Oc3ccc(NC(=O)Nc4cccc(Cl)c4)cc3)cc2[nH]1", "inhibition / %": -1.67}
{"sample-smiles": "COc1cc(N2CCN(C(C)C)CC2)ccc1Nc1nc(Nc2ccc(F)cc2C(N)=O)c2cc[nH]c2n1", "inhibition / %": 88.4}
{"sample-smiles": "Fc1ccc(-c2nn3ccccc3c2-c2ccncc2)cc1", "inhibition / %": 1.47}

Lab note: next compound to report on.
Query string: # inhibition lookup, item `COc1ccc(CNC(=O)c2ccc(-c3cc(-c4nnc(C)o4)ccc3C)cc2)cc1`
Result string: 2.3

* * *

Reported inhibition values for the following molecules.
Molecular target: Ephrin type-B receptor 2 (Homo sapiens) (UniProt P29323)
Sequence (P29323 whole entry): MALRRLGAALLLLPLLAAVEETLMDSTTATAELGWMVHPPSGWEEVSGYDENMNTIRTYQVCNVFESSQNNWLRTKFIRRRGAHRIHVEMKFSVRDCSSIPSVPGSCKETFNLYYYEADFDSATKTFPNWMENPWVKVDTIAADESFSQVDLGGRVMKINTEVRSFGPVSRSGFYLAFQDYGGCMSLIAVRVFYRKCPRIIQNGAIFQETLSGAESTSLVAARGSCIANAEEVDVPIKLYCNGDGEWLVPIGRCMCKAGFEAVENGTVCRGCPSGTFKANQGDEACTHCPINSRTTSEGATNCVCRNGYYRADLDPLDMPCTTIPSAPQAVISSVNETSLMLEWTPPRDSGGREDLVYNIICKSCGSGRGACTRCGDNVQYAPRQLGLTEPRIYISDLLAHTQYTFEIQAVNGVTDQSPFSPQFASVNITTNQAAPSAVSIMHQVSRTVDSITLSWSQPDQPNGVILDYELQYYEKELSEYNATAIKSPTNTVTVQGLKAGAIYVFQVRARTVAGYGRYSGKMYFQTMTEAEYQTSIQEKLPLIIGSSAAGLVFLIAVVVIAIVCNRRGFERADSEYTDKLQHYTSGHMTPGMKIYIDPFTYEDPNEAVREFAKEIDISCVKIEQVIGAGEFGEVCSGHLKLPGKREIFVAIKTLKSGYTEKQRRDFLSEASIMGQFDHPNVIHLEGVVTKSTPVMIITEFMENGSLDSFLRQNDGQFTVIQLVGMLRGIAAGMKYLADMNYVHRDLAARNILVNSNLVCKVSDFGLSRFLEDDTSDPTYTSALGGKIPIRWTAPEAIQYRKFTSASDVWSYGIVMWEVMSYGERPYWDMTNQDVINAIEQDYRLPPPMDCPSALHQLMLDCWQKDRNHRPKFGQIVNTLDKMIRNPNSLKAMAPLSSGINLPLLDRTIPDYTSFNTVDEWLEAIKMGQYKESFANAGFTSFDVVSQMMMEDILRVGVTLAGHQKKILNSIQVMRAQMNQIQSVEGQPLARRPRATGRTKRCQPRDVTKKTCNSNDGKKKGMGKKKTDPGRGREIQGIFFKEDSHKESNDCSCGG
Conditions: at 1 µM
Description: GSK_PKIS: EPHB2 mean inhibition at 1 uM [Nanosyn]
Answer with the figure and its unit, nothing else.

Solved entries (count: 3):
{"sample-smiles": "Cc1cccc(Nc2ncc(-c3ccccc3)o2)c1", "inhibition": "2.78%"}
{"sample-smiles": "Cc1ccc(O)cc1Nc1ccnc2cc(-c3ccccn3)ccc12", "inhibition": "91.9%"}
{"sample-smiles": "c1cc(-c2cnn3nc(N4CCOCC4)ccc23)nc(NC2CC2)n1", "inhibition": "9.21%"}

Query string: // returns reported inhibition for input `COC(=O)Nc1nc2ccc(Oc3ccc(NC(=O)Nc4cccc(Cl)c4)cc3)cc2[nH]1`
Result string: 68%

Query string: Which measured inhibition value corresponds to `COc1ccc2[nH]c3c4[nH]c5ccc(OC)cc5c4c4c(c3c2c1)C(=O)NC4=O` ?
Result string: 17.6%

Query string: // inhibition lookup, key: `COC(=O)c1sc(-n2cnc3cc(OC)c(OC)cc32)cc1OCc1ccccc1C(F)(F)F`
Result string: 10.3%

Query string: Item under review: `NS(=O)(=O)c1ccc(N/N=C2\C(=O)Nc3ccc4ncccc4c32)cc1` . Reported inhibition?
Result string: 29.1%

Query string: Name the recorded inhibition for `NS(=O)(=O)c1ccc(Nc2ncc(-c3ccccc3)o2)cc1` .
Result string: 7.75%

Query string: Quick one: inhibition for `COc1ccc(-c2cc3c(N)ncnc3o2)cc1` ?
Result string: 4.07%

Query string: Reported inhibition for `CCNC(=O)O[C@H]1CN[C@H](C#Cc2cc3ncnc(Nc4ccc(OCc5cccc(F)c5)c(Cl)c4)c3s2)C1` : what is it?
Result string: 4.8%

* * *

The compounds listed here are annotated with their inhibition.
Molecular target: Serine/threonine-protein kinase Sgk2 (Homo sapiens) (UniProt Q9HBY8)
Sequence (whole entry): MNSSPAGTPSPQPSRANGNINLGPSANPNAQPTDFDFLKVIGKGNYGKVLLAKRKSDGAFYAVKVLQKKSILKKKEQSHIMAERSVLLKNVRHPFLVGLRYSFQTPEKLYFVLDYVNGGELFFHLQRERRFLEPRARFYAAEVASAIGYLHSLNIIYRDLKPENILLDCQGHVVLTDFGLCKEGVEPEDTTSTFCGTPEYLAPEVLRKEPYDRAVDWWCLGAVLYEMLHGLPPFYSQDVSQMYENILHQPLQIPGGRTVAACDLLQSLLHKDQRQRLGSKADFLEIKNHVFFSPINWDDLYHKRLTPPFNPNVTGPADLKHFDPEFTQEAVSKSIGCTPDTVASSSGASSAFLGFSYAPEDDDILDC
Details: at 1 µM
Description: GSK_PKIS: SGK2 mean inhibition at 1 uM [Nanosyn]
Show the value, then the unit it is measured in.

Worked cases, answers included:
{"sample-smiles": "COC(=O)Nc1nc2ccc(Oc3ccc(NC(=O)Nc4cccc(Cl)c4)cc3)cc2[nH]1", "system": "Serine/threonine-protein kinase Sgk2 (Homo sapiens) (UniProt Q9HBY8)", "inhibition": "-2.41%"}
{"sample-smiles": "CNC(=O)c1cccc(C#Cc2cncnc2Nc2ccc(OCc3cccc(F)c3)c(Cl)c2)c1", "system": "Serine/threonine-protein kinase Sgk2 (Homo sapiens) (UniProt Q9HBY8)", "inhibition": "0.71%"}

Query string: Fill in the blank: the reported inhibition of `O=C(Nc1n[nH]c2cc(-c3ccc(F)cc3)ccc12)C1CC1` is ____.
Result string: 6.36%

Query string: Would you kindly share the measured inhibition for `CCN(CC)S(=O)(=O)c1ccc(OC)c(Nc2ncc(-c3ccccc3)o2)c1` ?
Result string: 1.93%

* * *

Biological target: Ribosomal protein S6 kinase alpha-1 (Homo sapiens);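 further: mean inhibition of RSK1, reported in the GSK PKIS screen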
Conditions: at 1 µM
Recorded inhibition values for a group of compounds are listed next.
Give your result in % as a bare value.

{"sample-smiles": "COc1ccc(CNC(=O)c2ccc(-c3cc(-c4nnc(C)o4)ccc3C)cc2)cc1", "system": "Ribosomal protein S6 kinase alpha-1 (Homo sapiens)", "value-unit": "%", "inhibition": 8.08}
{"sample-smiles": "CCn1c(-c2nonc2N)nc2cnc(Oc3cccc(NC(=O)c4ccc(N(C)C)cc4)c3)cc21", "system": "Ribosomal protein S6 kinase alpha-1 (Homo sapiens)", "value-unit": "%", "inhibition": 68.3}
{"sample-smiles": "CCc1nn2ncccc2c1-c1ccnc(NC2CC2)n1", "system": "Ribosomal protein S6 kinase alpha-1 (Homo sapiens)", "value-unit": "%", "inhibition": 2.08}
{"sample-smiles": "CC(C)COC(=O)c1ccc2c(c1)/C(=C/Nc1ccc(S(N)(=O)=O)cc1)C(=O)N2", "system": "Ribosomal protein S6 kinase alpha-1 (Homo sapiens)", "value-unit": "%", "inhibition": 32.4}
{"sample-smiles": "c1ccc(COc2ccc(Nc3ncnc4ccc(-c5ccco5)cc34)cc2)cc1", "system": "Ribosomal protein S6 kinase alpha-1 (Homo sapiens)", "value-unit": "%", "inhibition": 1.39}
{"sample-smiles": "CCCN(CCS(C)(=O)=O)Cc1ccc(-c2ccc3ncnc(Nc4ccc(OCc5cccc(F)c5)c(Cl)c4)c3c2)o1", "system": "Ribosomal protein S6 kinase alpha-1 (Homo sapiens)", "value-unit": "%", "inhibition": 0.68}

Query string: Entry under review: `Nc1nc(-c2ccc(F)cc2)c(-c2ccc3ncccc3n2)s1` . Reported inhibition?
Result string: 7.04

Query string: Given `COc1cc(Nc2nccc(Nc3ccc4c(C)n[nH]c4c3)n2)cc(OC)c1OC` , state its recorded inhibition.
Result string: -0.01

Query string: Can you share its inhibition? I mean this compound: `CS(=O)(=O)CCNCc1ccc(-c2ccc3ncnc(Nc4ccc(OCc5ccccc5)c(C(F)(F)F)c4)c3c2)o1`
Result string: 1.86
